- System: level of blood sugar
- assay explanation: Anti-hyperglycemia activity (reduction of blood sugar level)
- Format: in vivo, rat (Wistar, streptozotocin)
- run parameters: oral, 300 mg/kg, 3 hrs.
Lab note: compare Reduced level of blood sugar after 3 hrs. against 90 mg/dL. Equal or greater, write 1. Smaller, write -1.

Prompt line: Does Reduced level of blood sugar after 3 hrs. meet or surpass 90 mg/dL for C[C@@H]1OC(Nc2cccc(C(=O)OCC3CCCCC3)c2)[C@@H](O)[C@H](O)[C@@H]1O (stereo partly shown) ?
Response line: 1

More entries:
Prompt line: Tell me whether Reduced level of blood sugar after 3 hrs. is at least 90 mg/dL here: C[C@@H]1OC(Nc2cccc(C(=O)OCc3ccccc3)c2)[C@@H](O)[C@H](O)[C@@H]1O (stereo partly drawn) [Compound 11, benzyl m-aminobenzoate-N-L-fucoside]
Response line: -1
